Several reports have described IC50 for UniProt:Q16678; a selection of those results is presented here.
SYSTEM_UNDER_TEST: UniProt:Q16678
Sequence (Q16678 whole entry): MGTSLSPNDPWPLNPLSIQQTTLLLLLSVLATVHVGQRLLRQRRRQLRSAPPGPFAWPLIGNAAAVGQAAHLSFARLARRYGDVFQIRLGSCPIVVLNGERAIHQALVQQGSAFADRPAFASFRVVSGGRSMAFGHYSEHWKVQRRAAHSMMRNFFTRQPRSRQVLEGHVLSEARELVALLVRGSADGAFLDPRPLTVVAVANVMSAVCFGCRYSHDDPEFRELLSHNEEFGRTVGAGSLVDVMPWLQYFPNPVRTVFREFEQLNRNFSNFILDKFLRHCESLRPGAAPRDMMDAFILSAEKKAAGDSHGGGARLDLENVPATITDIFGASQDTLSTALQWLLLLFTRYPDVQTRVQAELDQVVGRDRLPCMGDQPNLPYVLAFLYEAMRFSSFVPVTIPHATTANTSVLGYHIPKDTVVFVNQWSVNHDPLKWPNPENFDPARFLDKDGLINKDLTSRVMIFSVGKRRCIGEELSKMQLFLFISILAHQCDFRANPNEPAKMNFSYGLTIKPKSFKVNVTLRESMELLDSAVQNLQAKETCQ
Your answer is read as nM, so omit the unit and give the number.

Solved entries:
{"MOL_SMILES": "O=c1[nH]c(-c2ccc(OCCF)cc2)nc2ccccc12", "IC50, nM": 49.4}
{"MOL_SMILES": "COc1ccc(/C=C/c2ccccc2)c(OC)c1", "IC50, nM": 25}

What the record says about COc1ccc(OC)c2c1c(OC)cc1c(=O)cc(-c3cccc(Cl)c3)oc12 : IC50 is 0.3

What the record says about COc1ccc(OC)c2c1c(OC)cc1c(=O)c(O)c(-c3ccccc3)oc12 : IC50 is 2.3

What the record says about COc1ccc(OC)c2c1c(OC)cc1c(=O)c(O)c(-c3ccc(F)cc3)oc12 : IC50 is 0.8

What the record says about CC(=O)c1ccc(/N=N/Nc2ccc(C(C)=O)cc2)cc1 : IC50 is 590

What the record says about COc1ccc(OC)c2c1c(OC)cc1c(=O)c(O)c(-c3cccc(Cl)c3)oc12 : IC50 is 3.5

* * *

Several reports have described log10 IC50 for Cytochrome P450 1B1 (Homo sapiens, UniProt Q16678); a selection of those results is presented here.
Could you please treat all values as log10 of IC50 in nM?

{"MOLECULE": "COc1ccc(/C=C/c2ccc(OC)c(OC)c2)c(OC)c1", "VAL": 1.62}
{"MOLECULE": "FCCOc1nc(-c2ccc(Br)cc2)nc2ccccc12", "VAL": 1.67}
{"MOLECULE": "COc1ccccc1-c1cc(=O)c2cc(OC)c3c(OC)ccc(OC)c3c2o1", "VAL": 0.95}
{"MOLECULE": "COc1ccc(OC)c2c1c(OC)cc1c(=O)c(OCCOC(=O)[C@H](C)N)c(-c3cccc(F)c3)oc12", "VAL": 1.99}

log10 IC50 of COc1ccc(OC)c2c1c(OC)cc1c(=O)c(OCCOC(=O)CN)c(-c3cccc(F)c3)oc12 , assay on Cytochrome P450 1B1 (Homo sapiens, UniProt Q16678), is 1.29

log10 IC50 of COc1ccc(OC)c2c1c(OC)cc1c(=O)cc(-c3ccc(O)cc3)oc12 , assay on Cytochrome P450 1B1 (Homo sapiens, UniProt Q16678), is 2.81

log10 IC50 of N#Cc1ccc(/N=N/Nc2ccc(C#N)cc2)cc1 , assay on Cytochrome P450 1B1 (Homo sapiens, UniProt Q16678), is 2.87

log10 IC50 of COc1ccc(OC)c2c1c(OC)cc1c(=O)c(OCCOC(=O)[C@@H](N)C(C)C)c(-c3cccc(F)c3)oc12 , assay on Cytochrome P450 1B1 (Homo sapiens, UniProt Q16678), is 2.06

log10 IC50 of COc1ccc(OC)c2c1c(OC)cc1c(=O)c(O)c(-c3ccccc3F)oc12 , assay on Cytochrome P450 1B1 (Homo sapiens, UniProt Q16678), is 0.08

log10 IC50 of COc1ccccc1OCCNCC(O)COc1cccc2[nH]c3ccccc3c12 (centres undefined) , assay on Cytochrome P450 1B1 (Homo sapiens, UniProt Q16678), is 3.04

log10 IC50 of COc1ccc(/C=C/c2cc(OC)c(OC)cc2OC)c(OC)c1 , assay on Cytochrome P450 1B1 (Homo sapiens, UniProt Q16678), is 0.74

log10 IC50 of O=C(O)c1ccc(/N=N/N2CCOCC2)cc1 , assay on Cytochrome P450 1B1 (Homo sapiens, UniProt Q16678), is 5.60
